// provenance: the NIST ThermoML archive (doi:10.1016/j.jct.2013.02.006)

Experiment: activity coefficient (dimensionless); of the first substance listed, at infinite dilution; xn = mol fraction of the nth substance listed
Conditions: 348.2 K; 101 kPa; Liquid; Chromatography; x1 = 0
MEASURED_ATTRIBUTE: activity coefficient
Keep the answer to the number alone.

Consider the following illustrative entries.
COMPOUND	activity coefficient
Cc1ccccc1 [toluene] + O=CN1CCOCC1	4.04
CCc1ccccc1 [ethylbenzene] + CN1CCCC1=O	1.83
C1CCCCC1 [cyclohexane] + CN1CCCC1=O	5.83
C=CCCCC [hex-1-ene] + O=CN1CCOCC1	11.6
C1CCCC1 [cyclopentane] + CN1CCCC1=O	4.68
C=CCCC [1-pentene] + O=CN1CCOCC1	9.43
c1ccccc1 [benzene] + CN1CCCC1=O	1.14
CCCCCC [hexane] + CN1CCCC1=O	9.19

Note activity coefficient for the compound shown: C=CCCCCC [1-heptene] + O=CN1CCOCC1
14.6

Note activity coefficient for the compound shown: C=CCCCCCC [oct-1-ene] + O=CN1CCOCC1
18.4
